system: membrane-bound phospholipase A2 (Oryctolagus cuniculus); experiment: Tested in vitro for inhibition of phospholipase A2 (PLA2) in rabbit heart membranes.
resultType: IC30 (µM)

Below, each entry is followed by its recorded IC30 result.
Ask: Look up IC30 for this compound: CN(C(=O)/C=C/c1ccc(S(C)(=O)=O)cc1)c1ccc(S(=O)(=O)NC2CCCCCC2)cc1
Result: 0.016

Ask: GET /values?readout=IC30&item= CN(C(=O)/C=C/c1ccc(S(C)(=O)=O)cc1)c1ccc(S(=O)(=O)NC2CCCCN(Cc3ccccc3)C2)cc1 (stereo not drawn)
Result: 0.025

Ask: Entry under review: CN(C(=O)/C=C/c1ccc(O)c(O)c1)c1ccc(S(=O)(=O)NC2CCCCCC2)cc1 . Reported IC30?
Result: 1.75

Ask: Quick one: IC30 for CN(C(=O)/C=C/c1ccc(O)c(O)c1)c1ccc(S(=O)(=O)NC2CCCCC2)cc1 ?
Result: 1.45

Ask: Look at this compound and give its reported IC30. CC(C)NS(=O)(=O)c1ccc(N(C)C(=O)/C=C/c2ccc(O)c(O)c2)cc1
Result: 30

(a) CN(C(=O)/C=C/c1ccc(S(C)(=O)=O)cc1)c1ccc(S(=O)(=O)N2CCN(CCc3ccccc3)CC2)cc1
(b) CN(C(=O)/C=C/c1ccc(S(C)(=O)=O)cc1)c1ccc(S(=O)(=O)N2CCN(Cc3ccccc3)CC2)cc1
Ask: Identify the entry with the smaller IC30: a or b . Select an item and report its label.
Result: a

----------
system: membrane-bound phospholipase A2 (Oryctolagus cuniculus); test: Tested in vitro for inhibition of phospholipase A2 (PLA2) in rabbit heart membranes.
resultType: IC30 (nM)

Ask: Find the measured IC30: item CN(C(=O)/C=C/c1ccc(C#N)cc1)c1ccc(S(=O)(=O)NC2CCCCCC2)cc1 , target or system membrane-bound phospholipase A2 (Oryctolagus cuniculus).
Result: 200

(P) CN(C(=O)/C=C/c1ccc(O)c(O)c1)c1ccc(S(N)(=O)=O)cc1
(Q) CN(C(=O)/C=C/c1ccc(S(C)(=O)=O)cc1)c1ccc(S(=O)(=O)N2CCCN(Cc3ccccc3)CC2)cc1
Ask: Hi team, can someone confirm which has the larger IC30: P or Q ? Thanks. State your choice using its label.
Result: P
(P: 13300 nM, Q: 64 nM)
